molecular target: Prostaglandin E2 receptor EP4 subtype (Homo sapiens); test: hEP4 cAMP Assay
Sequence (P35408 whole entry): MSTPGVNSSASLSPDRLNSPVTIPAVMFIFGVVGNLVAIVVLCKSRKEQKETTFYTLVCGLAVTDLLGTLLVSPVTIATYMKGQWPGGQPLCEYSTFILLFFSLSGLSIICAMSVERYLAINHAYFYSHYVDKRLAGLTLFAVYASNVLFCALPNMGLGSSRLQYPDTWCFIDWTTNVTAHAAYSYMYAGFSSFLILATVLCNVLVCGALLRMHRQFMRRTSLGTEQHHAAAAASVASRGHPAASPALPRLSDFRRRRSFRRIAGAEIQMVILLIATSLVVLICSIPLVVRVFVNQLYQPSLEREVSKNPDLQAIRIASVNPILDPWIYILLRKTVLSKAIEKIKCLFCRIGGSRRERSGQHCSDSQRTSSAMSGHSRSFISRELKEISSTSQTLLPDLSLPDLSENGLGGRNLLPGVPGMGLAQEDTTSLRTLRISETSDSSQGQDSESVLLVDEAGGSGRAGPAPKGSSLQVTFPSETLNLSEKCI
Measured quantity: IC50 (nM)

CCOc1cc(-c2cc(NCCc3c(OC)cc4ccccc4c3C)ncn2)ccc1OCCC(=O)O [US11839613, Example 423] :: 6

I: COc1cc2c(c(C)c1CCNc1cc(-c3ccc(CC(=O)O)c(OC(F)(F)F)c3)ncn1)OCCO2 [US11839613, Example 428]
II: COc1cc2c(cc1CCNc1cc(-c3ccc(CC(=O)O)c(OC)c3)ncn1)OCCO2 [US11839613, Example 383]
III: CCOc1cc2c(cc1CCNc1cc(-c3cc(F)c(CC(=O)O)c(OCC)c3)ncn1)OCCO2 [US11839613, Example 403]
// query Write the entries in order, lowest recorded IC50 first. Provide the labels, sequenced as the question asks.
// result I, III, II
(I: 50 nM, III: 112 nM, II: 270 nM)

I: CCOc1cc2c(cc1CCNc1cc(-c3ccc(C(=O)O)c(CC(C)C)c3)ncn1)OCCO2 [US11839613, Example 417]
II: CCOc1cc2c(cc1CCNc1cc(-c3ccc(CC(=O)O)c(CC(C)C)c3)ncn1)OCCO2 [US11839613, Example 412]
// query Input pair: I , II . Output: entry with lower IC50. Let me know the label of the one you choose.
// result II

A: CCOc1cc(-c2cc(NCCc3c(OC)cc4ccccc4c3C)ncn2)cc(F)c1CC(=O)O [US11839613, Example 374]
B: CCc1cc(-c2cc(NCCc3c(OC)cc4ccccc4c3C)ncn2)ccc1CC(=O)O [US11839613, Example 445]
C: CCOc1cc(-c2cc(NCCc3ccc4ccsc4c3C)ncn2)sc1C(=O)O [US11839613, Example 376]
D: CCOc1cc(-c2cc(NCCc3cc(C)c4sccc4c3)ncn2)sc1C(=O)O [US11839613, Example 391]
// query Kindly order the items shown according to IC50, from the highest value down. Provide the labels, sequenced as the question asks.
// result B, A, C, D

A: CCCc1cc(-c2cc(NCCc3c(OC)cc4ccccc4c3C)ncn2)ccc1C(=O)O [US11839613, Example 380]
B: CCOc1cc(-c2cc(NCCc3c(OC)cc4ccccc4c3F)ncn2)ccc1C(=O)O [US11839613, Example 101]
C: CC(C)Cc1cc(-c2cc(NCCc3cc(F)c4sccc4c3)ncn2)ccc1C(=O)O [US11839613, Example 414]
// query Write the entries in order, lowest recorded IC50 first. Provide the labels, sequenced as the question asks.
// result B, A, C

a: CCOc1cc(-c2cc(NCCc3cc4ccsc4c(F)c3OC)ncn2)ccc1C(=O)O [US11839613, Example 404]
b: CCCc1cc(-c2cc(NCCc3c(OC)cc4c(c3F)OCCO4)ncn2)ccc1CC(=O)O [US11839613, Example 408]
// query Input pair: a , b . Output: entry with lower IC50. Let me know the label of the one you choose.
// result b
(b: 20 nM, a: 71 nM)

1: CCOc1cc(-c2cc(NCCc3cc4ccsc4cc3OC)ncn2)cc(F)c1CC(=O)O [US11839613, Example 371]
2: CCCc1cc(-c2cc(NCCc3cc4c(cc3OCC)OCCO4)ncn2)ccc1CC(=O)O [US11839613, Example 402]
// query Of the two listed items, which has the higher IC50? First: 1 Second: 2 Let me know the label of the one you choose.
// result 2
(2: 131 nM, 1: 68 nM)

A: CCCc1cc(-c2cc(NCCc3cc4ccsc4cc3OC)ncn2)ccc1C(=O)O [US11839613, Example 377]
B: CCOc1cc2c(cc1CCNc1cc(-c3ccc(CC(=O)O)c(OC(C)C)c3)ncn1)OCCO2 [US11839613, Example 425]
// query Input pair: A , B . Output: entry with lower IC50. Let me know the label of the one you choose.
// result A

a: CCOc1cc(-c2cc(NCCc3ccc4sccc4c3)ncn2)cc(F)c1CC(=O)O [US11839613, Example 370]
b: COc1cc2sccc2cc1CCNc1cc(-c2ccc(CC(=O)O)c(OC)c2)ncn1 [US11839613, Example 381]
// query Of the two listed items, which has the higher IC50? First: a Second: b Let me know the label of the one you choose.
// result b
(b: 119 nM, a: 81 nM)
